assay: log P determination; assay type: physicochemical; details: intermediates of formula drawing 23, table
Cut-off 4 on log P: below means Satisfied, at or above means Not satisfied.

COC(=O)c1cnn2c(NC(C)C(C)C)c(-c3ccccc3Cl)c(Cl)nc12 (centres unmarked)
Not satisfied
COC(=O)c1cnn2c(NC(C)C(C)(C)C)c(-c3ncncc3F)c(Cl)nc12 (centres unmarked)
Satisfied
COC(=O)c1cnn2c(NC(C)C(F)(F)F)c(-c3ccc(F)cc3Cl)c(Cl)nc12 (centres unmarked)
Satisfied

Now for another entry.
Identify whether the compound COC(=O)c1cnn2c(NC(C)C(C)(C)C)c(-c3ccccc3Cl)c(Cl)nc12 (centres unmarked) records log P below 4.
Not satisfied

----------
assay: log P determination; assay type: physicochemical; settings: HPLC (gradient method); starting materials and intermediates, log P / log P*; read-out: log P
QUANTITY KIND: log p
// return just the number, without any unit appended

Record request: log p value, item COC(=O)c1cn[nH]c1N [methyl 5-amino-1H-pyrazole-4-carboxylate]
-0.07

----------
Below, each entry is listed alongside its reported log p.
assay: log P determination; type: physicochemical; conditions: starting materials and intermediates, log P / log P*; read-out: log P
// return just the number, without any unit appended

COC(=O)c1cnn2c(Cl)c(-c3ccc(Cl)cc3Cl)c(Cl)nc12
3.86
CC(C)Nc1c(-c2ccc(Cl)cc2Cl)c(Cl)nc2c(C(=O)O)cnn12
3.3

Record request: log p value, item COC(=O)c1cnn2c(O)c(-c3ccc(Cl)cc3Cl)c(O)nc12
1.21

Record request: log p value, item COC(=O)c1cnn2c(NC(C)C)c(-c3ccc(Cl)cc3Cl)c(Cl)nc12
4.07

----------
assay: log P determination; format: physicochemical; details: values marked *; HPLC, gradient method, acetonitrile/0.1% aqueous phosphoric acid, EEC Directive 79/831 Annex V. A8
QUANTITY KIND: chromatographic logP
// return just the number, without any unit appended

Record request: chromatographic logP value, item CC(C)Nc1c(-c2ccc(Cl)cc2Cl)c(Cl)nc2c(C(=O)NS(C)(=O)=O)cnn12
3.91

----------
Below, each entry is listed alongside its reported log p.
test: log P determination; format: physicochemical; details: EEC Directive 79/831 Annex V. A8 by HPLC (gradient method, acetonitrile/0.1% aqueous phosphoric acid)
// return just the number, without any unit appended

CC1CCN(c2c(-c3ccc(F)cc3Cl)c(Cl)nc3c(C(=O)Nc4ncn(C)n4)cnn23)CC1
3.89

Record request: log p value, item CC(C)C(C)Nc1c(-c2ccc(F)cc2Cl)c(Cl)nc2c(C(=O)Nc3ncn(C)n3)cnn12 (stereo not shown)
3.62

Record request: log p value, item CC1CCN(c2c(-c3ccc(F)cc3Cl)c(Cl)nc3c(C(=O)Nc4ncn[nH]4)cnn23)CC1
4.11

Record request: log p value, item CC(C)C(C)Nc1c(-c2ccc(F)cc2F)c(Cl)nc2c(C(=O)NS(C)(=O)=O)cnn12 (stereo not shown)
3.87

----------
Below, each entry is listed alongside its reported log p.
assay: log P determination; format: physicochemical; details: values marked **; EEC Directive 79/831 Annex V.A8, HPLC gradient method, acetonitrile/0.1% aqueous formic acid
Marks after values point to notes of the source that are not given here.

Cc1cc(F)c(-c2c(Cl)nc3c(C(=O)NS(C)(=O)=O)cnn3c2N[C@H](C)C(C)C)c(F)c1 [compound 219]
4.08**
Cc1cc(F)c(-c2c(Cl)nc3c(C(=O)NS(C)(=O)=O)cnn3c2N[C@H](C)C(C)(C)C)c(F)c1 [compound 51]
4.38**
CC(Nc1c(-c2ccccc2)c(Cl)nc2c(C(=O)Nc3ccon3)cnn12)C(C)(C)C (centres unmarked) [compound 71]
4.88**

Record request: log p value, item CCS(=O)(=O)NC(=O)c1cnn2c(N[C@H](C)C(C)C)c(-c3ccc(Cl)cc3Cl)c(Cl)nc12 [compound 208]
4.88**

Record request: log p value, item CC(C)[C@@H](C)Nc1c(-c2ccc(Cl)cc2Cl)c(Cl)nc2c(C(=O)NS(=O)(=O)C(F)(F)F)cnn12 [compound 206]
3.87**
